Data origin: paper PMC9943660

Biological target: MSH2 WT (MutSα);MSH6 WT (MutSα) (human;human, UniProt P43246;P52701 1-934;1-1360, |)
Assay: SPR
Test Readout: Kd (nM)

- Binder: "21 bp GT mismatch (SPR) (dsDNA) DNA 1: TTTTTTTTTTTTTTTTTTTTAGTCGCCAGGGACCAGTGTCA DNA 2: TGACACTGGTCTCTGGCGACT"
  Test Readout: "Kd"
  Quantitative Result: 1.08
